These measurements were taken from paper PMC4132844.

test system: CYP2C9 (expressed drug-metabolizing enzyme); assay: TeamChip metabolism-induced toxicity assay, CYP2C9; type: cell-based; conditions: human

compound | targetDesc | IC50 at 48 h [µM]
Nc1c(CC(=O)O)cccc1C(=O)c1ccc(Br)cc1 | CYP2C9 (expressed drug-metabolizing enzyme) | 120
Cc1c(C)c2c(c(C)c1O)CCC(C)(COc1ccc(CC3SC(=O)NC3=O)cc1)O2 (centres unmarked) | CYP2C9 (expressed drug-metabolizing enzyme) | 50
CN1CCN(CCCN2c3ccccc3Sc3ccc(C(F)(F)F)cc32)CC1 | CYP2C9 (expressed drug-metabolizing enzyme) | 75
CC(C)C(=O)Nc1ccc([N+](=O)[O-])c(C(F)(F)F)c1 [Flutamide, flutamide] | CYP2C9 (expressed drug-metabolizing enzyme) | 25
CC(=O)Nc1ccc(O)cc1 | CYP2C9 (expressed drug-metabolizing enzyme) | 930
